target: wild-type rat apelin receptor tagged at its C-terminus with EGFP (rat) (UniProt Q9JHG3)
Sequence (Q9JHG3 whole entry): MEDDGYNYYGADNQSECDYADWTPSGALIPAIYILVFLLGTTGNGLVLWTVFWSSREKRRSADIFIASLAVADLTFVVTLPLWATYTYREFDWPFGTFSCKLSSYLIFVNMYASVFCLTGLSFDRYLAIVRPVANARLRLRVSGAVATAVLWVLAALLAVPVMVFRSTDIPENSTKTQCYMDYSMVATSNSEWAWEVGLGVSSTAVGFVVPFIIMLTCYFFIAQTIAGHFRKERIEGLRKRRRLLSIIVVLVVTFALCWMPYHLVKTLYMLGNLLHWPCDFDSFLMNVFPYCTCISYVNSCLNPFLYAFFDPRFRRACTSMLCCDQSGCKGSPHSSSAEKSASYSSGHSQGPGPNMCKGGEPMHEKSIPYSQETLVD
experiment: displacement of 0.2 nM [125I]-pyr-1-apelin-13; membranes of CHO cells expressing rat apelin receptor-EGFP
Where no end group is shown, it is not given here. [ ]: non-standard residue; d: D form. Phe(4-Br) = N[C@@H](Cc1ccc(Br)cc1)C(=O)O; pGlu = O=C1CC[C@@H](C(=O)O)N1; Nle = CCCC[C@H](N)C(=O)O; Aib = CC(C)(N)C(=O)O
measurementKind: pKi
// field semantics: pKi = negative decimal log of concentration (mol/L)

Example results:
XRPXLSHKGPXXX (pGlu at 1; αMeArg at 4; Nle at 11; Aib at 12; paraBrPhe at 13) [α-MeArg4-pyr-1-apelin-13 A2 (12)] : 9.25
XRPRXSHKGPXXX (pGlu at 1; αMeLeu at 5; Nle at 11; Aib at 12; paraBrPhe at 13) [α-MeLeu5-pyr-1-apelin-13 A2 (14)] : 9.77
XRPRXSHKGPXXX (pGlu at 1; azaLeu at 5; Nle at 11; Aib at 12; paraBrPhe at 13) [azaLeu5-pyr-1-apelin-13 A2 (18)] : 9.89
XRPRXSHKGPXXX (pGlu at 1; D-Leu at 5; Nle at 11; Aib at 12; paraBrPhe at 13) [D-Leu5-pyr-1-apelin-13 A2 (8)] : 9.92
[pGlu]RP[azaArg]LSHKGP[Nle][Aib][Phe(4-Br)] [azaArg4-pyr-1-apelin-13 A2 (16)] : 9.00

Moving on to the next binder.
Name the recorded pKi for XRPRXSHKGPXXX (pGlu at 1; NMeLeu at 5; Nle at 11; Aib at 12; paraBrPhe at 13) [N-MeLeu5-pyr-1-apelin-13 A2 (10)] .
10.00
